Listed here: items and their measured protein stability index.
B1: IKZF1 (parent)
chain: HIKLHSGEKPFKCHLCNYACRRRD

variants of: B1; assay: protein stability index of a GFP-peptide fusion (GPS, HEK-293T) (PSI 1-6); higher = more stable; conditions: c terminus: a fixed tail appended;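 note: lentivirally expressed fusions sorted by FACS into six bins by GFP to DsRed ratio, PSI derived from sequencing read proportions per bin multiplied by bin number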
Write the number on its own, no unit after it.

{"SEQUENCE_STRING": "HIKNHSGEKPFKCHLCNYACRRRD [L4N]", "ENDPOINT_RESULT": 1.87}
{"SEQUENCE_STRING": "HIKLHSGEKPFKCHLCIYACRRRD [N17I]", "ENDPOINT_RESULT": 2.86}
{"SEQUENCE_STRING": "HIKLHSGEKPAKCHLCNYACRRRD [F11A]", "ENDPOINT_RESULT": 2.75}
{"SEQUENCE_STRING": "TIKLHSGEKPFKCHLCNYACRRRD [H1T]", "ENDPOINT_RESULT": 1.17}
{"SEQUENCE_STRING": "HIKLHSGEKPFKCHICNYACRRRD [L15I]", "ENDPOINT_RESULT": 2.44}

# ---- query variant ----
Incoming: Recorded protein stability index of HIKLHSGEKPFKCHLCNPACRRRD [Y18P] , please.
Outgoing: 1.94
